For each entry below, report its Kd value.
- target_system: T1, PD-L2-Fc (human PD-L2) (human, UniProt Q9BQ51 20-220, limits assumed)
- T1 construct: not shown: Fc portion
- T1 sequence (looked up): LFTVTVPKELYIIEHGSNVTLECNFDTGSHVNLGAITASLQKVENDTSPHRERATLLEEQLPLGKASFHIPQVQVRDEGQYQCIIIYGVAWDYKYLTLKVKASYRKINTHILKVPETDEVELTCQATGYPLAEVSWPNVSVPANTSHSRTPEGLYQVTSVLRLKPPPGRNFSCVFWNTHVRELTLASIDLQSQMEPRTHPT
- test_name: yeast surface display binding assay for PDL2 (summary list)
Numbers only, in nM.

Reference set (5 entries):
original mutant sPD-1 (7 mutations, yeast displayed) (receptor, also called initial Mutant PD-1 clone; 2-7 mutations) LDSPDRPWNPPTFSPALLVVTEGDNATFTCSFSNTSEGFVLNWYRMSPSNQTDKLAAFPEDRGQLGQDCRFRVTQLPNGRDFHMSVVRARRNDSGTYLCSAIVLAPKIQIKESLRVELRVTERRAEVPTAHPSPSPRPAGQFQTLV
2.6
Clone #5 (62-3 mutations, yeast displayed sPD-1 mutant) (receptor) LDSPDRPWNPPTFSPALLVVTEGDNATFTCSFSNTSESFVLNWYRMSPSNQTDKLAAFPEDRSQPGQDCRFRVTQLPNGRDFHMSVVRARRNDSGTYLCSAIVLAPKIQIKESLRAELRVTERRAEVPTAHPSPSPRPAGQFQTLV
4.1
Clone #2 (120-5 mutations, yeast displayed sPD-1 mutant) (receptor) LDSPDRPWNPPTFSPALLVVTEGDNATFTCSFSNTSESFVLNWYRMSPSNQTDKLAAFPEDRGQPGQDCRFRVTQLPNGRDFHMSVVRARRNDSGTYLCSAIVLAPKIQIKESLRVELRVTERRAEVPTAHPSPSPRPAGQFQTLV
0.11
Clone #4 (100-4 mutations, yeast displayed sPD-1 mutant) (receptor) LDSPDRPWNPPTFSPALLVVTEGDNATFTCSFSNTSESFVLNWYRMSPSNQTDKLAAFPEDRSQPGQDCRFRVTQLPNGRDFHMSVVRARRNDSGTYLCSAIVLAPKIQIKESLRVELRVTERRAEVPTAHPSPSPRPAGQFQTLV
0.87
Clone #1 (121-5 mutations, yeast displayed sPD-1 mutant) (receptor) LDSPDRPWNPPTFSPALLVVTEGDNATFTCSFSNTSESFVLNWYRMSPSNQTDKLAAFPEDRSQLGQDCRFRVTQLPNGRDFHMSVVRARRNDSGTYLCSAIVLAPKIQIKESLRVELRVTERRAEVPTAHPSPSPRPAGQFQTLV
1.4

# evaluate next
stdin: Identify measured Kd corresponding to Clone #3 (128-6 mutations, yeast displayed sPD-1 mutant) (receptor) LDSPDRPWNPPTFSPALLVVTEGDNATFTCSFSNTSESFVLNWYRMSPSNQTDKLAAFPEDRGQLGQDCRFRVTQLPNGRDFHMSVVRARRNDSGTYLCSAIVLAPKIQIKESLRVELRVTERRAEVPTAHPSPSPRPAGQFQTLV
stdout: 1.1
